Entry source: patent US20240218057A1

This section presents binders with their documented EC50 values.
Experimental system: T1, SARS-COV-2 RBD (SARS-COV-2, UniProt P0DTC2 319-539)
T1 construct: also called WT RBD
Assay procedure: ELISA, RBD coated on plate
Please don't drop the unit; write it after the number.

[Q] Give the measured EC50 for C1053 (antibody, V domains shown) VH: EVQLLESGGGLVQPGGSLRLSCAASGFTFSSYAMNWVRQAPGKGLEWVSAISGSGGGTYYADSVKGRFTISRDNSKNTLYLQMDSLRAEDTAVYYCAKDVPIEQQLVPTFDYWGQGALVTVSS VL: DIQMTQSPSSLSASVGDRVTITCRASQSISRYLNWYQQKPGKAPKLLIYGASSLQSGVPSRFSGSGSGTDFTLTISSLQPEDFATYWCQQSYSTLSITFGQGTRLEIK
[A] 4.13 ng/mL

[Q] Give the measured EC50 for C921 (antibody, V domains shown) VH: QLQLQESGPGLVKPSETLSLTCAVSGGSISNSPFYWAWIRQPPGKGLECIGSIYYTGSTYYNPSLKSRVTISVDTSTKQFSLKLRSVTAADTAVYYCARHFADGSGRVVDYWGQGTLVTVSS VL: EIVLTQSPATLSLSPGERATLSCRASQSVTTYLAWYQQKPGQAPRLLIYDVSSRATGIPARFSGSGSGTDFTLTISSLEPEDFAVYYCQQRSNWPLYTFGQGTKLEIK
[A] 3.91 ng/mL

# input for lookup
[Q] Give the measured EC50 for C927 (antibody, V domains shown) VH: QVQLVESGGGVVQPGRSLRLSCVASGFTFSYFDMHWVRQAPGKGLEWVALISHDGSTTFYGDSARGRFTISRDNSRNTLDLQMNSLRPEDTAVYFCAKPVDAAMFDFWGQGTLVTVS VL: SYELTQPPSVSVAPGKTARITCGGNNIGSKSVHWYQQRPGQAPVLVIYYDSDRPSGIPERFSGSNSGNTATLTISRVEAGDEADFYCQVWDRSTNHLVVFGGGTQLTVL
[A] 3.77 ng/mL
